// Kd lookup, one value per entry
molecular target: human TGFßRII (antigen of the Octet experiments) (human, UniProt P37173 23-166); experiment: BLI (Octet)
Sequence (P37173 23-166): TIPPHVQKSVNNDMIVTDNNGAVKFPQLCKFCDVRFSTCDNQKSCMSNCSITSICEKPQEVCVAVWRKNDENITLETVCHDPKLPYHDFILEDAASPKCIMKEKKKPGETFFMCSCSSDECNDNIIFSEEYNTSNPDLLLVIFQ
Express it in nM; write the number only.

Here are 4 binders together with their reported answers.
[
  {
    "binder": "H1.84 L1 XENP34540 (antibody, V domains shown) VH: QLQVQESGPGLVKPSETLSLTCTVSGGSISNSYFSWGWIRQPPGKGLEWIGSFYYGEKTYYNPSLKSRATISIDTSKSQFSLKLSSVTAADTAVYYCPRGPTEIRGVIDSWGQGTLVTVSS VL: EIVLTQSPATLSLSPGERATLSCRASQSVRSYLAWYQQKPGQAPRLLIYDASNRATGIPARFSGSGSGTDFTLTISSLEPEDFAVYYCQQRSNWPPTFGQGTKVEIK",
    "metric": "Kd",
    "recordedMeasurement": 4.16
  },
  {
    "binder": "H1 L1.1 XENP34564 (antibody, V domains shown) VH: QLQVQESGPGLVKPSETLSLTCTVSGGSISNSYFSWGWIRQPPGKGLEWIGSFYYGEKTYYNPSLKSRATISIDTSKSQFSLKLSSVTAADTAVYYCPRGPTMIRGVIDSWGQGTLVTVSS VL: EIVMTQSPATLSLSPGERATLSCRASQSVRSYLAWYQQKPGQAPRLLIYDASNRATGIPARFSGSGSGTDFTLTISSLEPEDFAVYYCQQRSNWPPTFGQGTKVEIK",
    "metric": "Kd",
    "recordedMeasurement": 0.569
  },
  {
    "binder": "H1.82 L1 XENP34538 (antibody, V domains shown) VH: QLQVQESGPGLVKPSETLSLTCTVSGGSISNSYFSWGWIRQPPGKGLEWIGSFYYGEKTYYNPSLKSRATISIDTSKSQFSLKLSSVTAADTAVYYCPRGPSMIRGVIDSWGQGTLVTVSS VL: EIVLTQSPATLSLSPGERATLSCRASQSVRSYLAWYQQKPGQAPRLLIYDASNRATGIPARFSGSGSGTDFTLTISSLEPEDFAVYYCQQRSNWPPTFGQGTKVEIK",
    "metric": "Kd",
    "recordedMeasurement": 2.41
  },
  {
    "binder": "H1.100 L1 XENP34556 (antibody, V domains shown) VH: QLQVQESGPGLVKPSETLSLTCTVSGGSISNSYFSWGWIRQPPGKGLEWIGSFYYGEKTYYNPSLKSRATISIDTSKSQFSLKLSSVTAADTAVYYCPRGPTMIRGVFDSWGQGTLVTVSS VL: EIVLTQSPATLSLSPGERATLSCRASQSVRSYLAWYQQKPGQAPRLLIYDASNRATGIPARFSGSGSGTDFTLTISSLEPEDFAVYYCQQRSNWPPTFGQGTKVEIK",
    "metric": "Kd",
    "recordedMeasurement": 0.898
  }
]

Shift focus to the following entry.
Data point: H1.89 L1 XENP34545 (antibody, V domains shown) VH: QLQVQESGPGLVKPSETLSLTCTVSGGSISNSYFSWGWIRQPPGKGLEWIGSFYYGEKTYYNPSLKSRATISIDTSKSQFSLKLSSVTAADTAVYYCPRGPTMDRGVIDSWGQGTLVTVSS VL: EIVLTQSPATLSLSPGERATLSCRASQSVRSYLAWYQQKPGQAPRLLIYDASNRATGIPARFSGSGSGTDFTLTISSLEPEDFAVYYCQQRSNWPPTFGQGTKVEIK ; Kd = 0.141
